# subject of test: hCDK1/B (Homo sapiens)
# Sequence (P06493 whole entry): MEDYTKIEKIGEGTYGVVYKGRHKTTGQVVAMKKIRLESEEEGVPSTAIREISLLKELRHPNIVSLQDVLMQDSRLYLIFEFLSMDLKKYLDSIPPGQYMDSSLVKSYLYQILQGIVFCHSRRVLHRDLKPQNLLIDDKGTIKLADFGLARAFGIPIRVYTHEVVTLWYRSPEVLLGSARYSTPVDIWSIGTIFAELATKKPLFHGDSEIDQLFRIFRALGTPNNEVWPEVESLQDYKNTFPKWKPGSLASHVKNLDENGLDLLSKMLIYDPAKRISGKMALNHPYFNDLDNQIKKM
# Sequence (P14635 whole entry partner): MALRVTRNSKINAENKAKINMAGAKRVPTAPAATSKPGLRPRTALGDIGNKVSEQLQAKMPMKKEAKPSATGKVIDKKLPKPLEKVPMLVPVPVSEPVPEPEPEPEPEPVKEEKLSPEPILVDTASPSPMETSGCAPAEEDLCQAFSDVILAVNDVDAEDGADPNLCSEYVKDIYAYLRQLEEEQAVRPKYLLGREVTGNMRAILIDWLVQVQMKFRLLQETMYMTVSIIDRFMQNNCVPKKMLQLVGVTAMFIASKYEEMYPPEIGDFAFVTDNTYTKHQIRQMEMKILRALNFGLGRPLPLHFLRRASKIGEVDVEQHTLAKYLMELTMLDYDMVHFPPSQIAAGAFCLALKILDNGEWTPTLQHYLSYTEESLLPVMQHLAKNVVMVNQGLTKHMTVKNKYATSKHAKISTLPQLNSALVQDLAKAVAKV
# test method notes: hCDK1/B
# Type: biochemical
# applied conditions: Table 1
Task for the reader: assign each of the following molecules its reported IC50.

With hCDK1/B (Homo sapiens) as the test system, CN1CCC(Nc2cc(-c3cn[nH]c3C(C)(C)C)ccn2)CC1 [Example 77] showed IC50 of ≥ 15 µM

With hCDK1/B (Homo sapiens) as the test system, CC(C)c1[nH]ncc1-c1ccnc(NCCc2ccccn2)c1 [Example 29] showed IC50 of < 10 µM

With hCDK1/B (Homo sapiens) as the test system, c1cc(-c2cn[nH]c2C2CCCC2)cc(NCCCN2CCOCC2)n1 [Example 65] showed IC50 of ≥ 15 µM

With hCDK1/B (Homo sapiens) as the test system, CC(C)c1[nH]ncc1-c1ccnc(NC2CCCCCC2)c1 [Example 40] showed IC50 of < 1 µM

With hCDK1/B (Homo sapiens) as the test system, CC(C)c1[nH]ncc1-c1ccnc(NCCc2ccccc2)c1 [Example 37] showed IC50 of < 5 µM

###

# subject of test: CDK2 cyA (Homo sapiens)
# test method notes: CDK2 cyA IMAP
# Type: biochemical
# applied conditions: Table 1; read-out: CDK2 cyA IMAP
pIC50: −log10 of the molar value.
quantity measured: pIC50

Measured pIC50, CC(C)c1[nH]ncc1-c1ccnc(NCCCN2CCOCC2)c1 : ≤ 4.82

Measured pIC50, CCC(C)c1[nH]ncc1-c1ccnc(NC2CCc3ccccc32)c1 (centres unmarked) : > 5.30

Measured pIC50, CC(C)c1[nH]ncc1-c1ccnc(Nc2ccccc2)c1 : > 7.30

Measured pIC50, CC(C)c1[nH]ncc1-c1ccnc(NCC2CCCCC2)c1 : > 5.30

Measured pIC50, COCCCNc1cc(-c2cn[nH]c2C(C)C)ccn1 : > 5.30

Measured pIC50, CC(C)c1[nH]ncc1-c1ccnc(NCCc2ccccc2)c1 : > 6.00

Measured pIC50, c1ccc2c(c1)CCC2Nc1cc(-c2cn[nH]c2C2CC2)ccn1 (centres unmarked) : > 5.30

Measured pIC50, CC(C)c1[nH]ncc1-c1ccnc(NCc2ccccc2C(F)(F)F)c1 : > 5.30

Measured pIC50, c1ccc2c(c1)CC(Nc1cc(-c3cn[nH]c3C3CC3)ccn1)C2 : > 6.00

Measured pIC50, c1cc(-c2cn[nH]c2C2CCCC2)cc(NCC2CC2)n1 : > 5.30

Measured pIC50, c1cc(-c2cn[nH]c2C2CCCC2)cc(NC2CC2)n1 : > 6.00

Measured pIC50, c1ccc2c(c1)CC(Nc1cc(-c3cn[nH]c3C3CCCCCC3)ccn1)C2 : > 6.00

Measured pIC50, c1ccc(CCNc2cc(-c3cn[nH]c3C3CCCC3)ccn2)cc1 : > 5.30

Measured pIC50, Cc1ccccc1CNc1cc(-c2cn[nH]c2C(C)(C)C)ccn1 : ≤ 4.82

Measured pIC50, Cc1ccc(CNc2cc(-c3cn[nH]c3C3CCCC3)ccn2)cc1 : > 5.30

Measured pIC50, CC(C)c1[nH]ncc1-c1ccnc(NCCCNC2CCCCC2)c1 : ≤ 4.82

Measured pIC50, CC(C)(C)c1[nH]ncc1-c1ccnc(NC2CCc3ccccc32)c1 (centres unmarked) : ≤ 4.82

Measured pIC50, Cc1ccccc1CNc1cc(-c2cn[nH]c2C2CC2)ccn1 : > 5.30

Measured pIC50, CC(C)c1[nH]ncc1-c1ccnc(NCCCCN(C)C)c1 : ≤ 4.82

Measured pIC50, CC(C)c1[nH]ncc1-c1ccnc(NCc2ccccc2)c1 : > 5.30
